test: Cytotoxicity against human HepG2 cells assessed as reduction in cell viability incubated for 24 hrs in DMEM/10% FBS supplemented with galactose by CellTiter-Glo luminescent assay; type: toxicity, cell-based
quantity: IC50 at 24 h (µM)
Give your result in µM as a bare value.

>  <compound>
O=C(c1ccccc1)C1CCN(C(=O)C2CCN(c3nnc(-c4ccccc4)o3)CC2)CC1

>  <IC50 at 24 h [µM]>
37.5

$$$$

In: I would be grateful if you could share the reported IC50 at 24 h for `O=C(C1CCN(c2nnc(-c3ccccc3)o2)CC1)N1CCC(c2ccccc2)CC1` .
Out: 37.5

In: Check O=C(C1CCN(c2nnc(-c3ccccc3)o2)CC1)N1CCC(Cc2ccccc2)C1 (stereo unspecified) too.
Out: 37.5

In: Check `O=C(CC1CCN(c2nnc(-c3ccccc3)o2)CC1)N1CCC(Cc2ccccc2)CC1` too.
Out: 37.5

In: Check `O=C(C1CCN(c2nnc(-c3ccccc3)o2)CC1)N1CCC(Cc2ccccc2)CC1` too.
Out: 37.5

In: Check `O=C(C1CCN(c2nnc(-c3ccccc3)s2)CC1)N1CCC(Cc2ccccc2)CC1` too.
Out: 37.5

In: Check `O=C(C1CCN(c2nnc(-c3ccncc3)o2)CC1)N1CCC(Cc2ccccc2)CC1` too.
Out: 37.5

In: Check `O=C(C1CCN(c2nnc(-c3ccccc3)o2)CC1)N1CCC(=Cc2ccccc2)CC1` too.
Out: 37.5

In: Check O=C(C1CCCN(c2nnc(-c3ccccc3)o2)C1)N1CCC(Cc2ccccc2)CC1 (stereo unspecified) too.
Out: 37.5

In: Check `O=C(C1CCN(c2noc(-c3ccccc3)n2)CC1)N1CCC(Cc2ccccc2)CC1` too.
Out: 37.5

In: Check CCCCCC[C@H]1C(=O)O[C@H](C)[C@H](NC(=O)c2cccc(NC=O)c2O)C(=O)O[C@@H](C)[C@@H]1OC(=O)CC(C)C [ANTIMYCIN A] too.
Out: 0.12
